TARGET_UNDER_TEST: UniProt Q8TDV5
Sequence (Q8TDV5 whole entry): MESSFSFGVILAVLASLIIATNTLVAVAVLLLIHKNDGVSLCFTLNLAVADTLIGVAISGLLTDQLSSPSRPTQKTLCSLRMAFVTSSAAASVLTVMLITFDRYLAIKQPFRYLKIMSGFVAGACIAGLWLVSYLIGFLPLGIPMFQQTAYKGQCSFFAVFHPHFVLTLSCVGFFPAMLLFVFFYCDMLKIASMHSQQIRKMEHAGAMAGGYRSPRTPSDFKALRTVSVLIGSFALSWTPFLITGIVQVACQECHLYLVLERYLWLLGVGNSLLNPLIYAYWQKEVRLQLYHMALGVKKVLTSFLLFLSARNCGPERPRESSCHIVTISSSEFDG
METHOD_SUMMARY: Melanophore dispersion assay, RUP3 dose responses
EXPERIMENTAL_SETUP: melanophores transfected with RUP3 expression vector
pEC50: −log10 of the molar value.
Some compounds, each annotated with its measured pEC50.
MEASURED_ENDPOINT: pEC50

[
  {
    "MOL": "COc1ccc(Nc2cc(OC3CCN(C(=O)OC(C)(C)C)CC3)ncn2)cc1F",
    "REPORTED_MEASUREMENT": 6.89
  },
  {
    "MOL": "Cc1ccc(Nc2cc(OC3CCN(C(=O)OC(C)(C)C)CC3)ncn2)cc1F",
    "REPORTED_MEASUREMENT": 7.21
  },
  {
    "MOL": "CC(C)OC(=O)N1CCC(Oc2cc(Oc3ccc(Br)cc3F)ncn2)CC1",
    "REPORTED_MEASUREMENT": 7.32
  }
]
